All values here come from ChEMBL document CHEMBL1153046.

GI50 overview
system: SK-MEL-28; experiment: Growth inhibition of human SK-MEL-28 cells after 48 hrs by sulforhodamine B assay; type: functional; conditions: SK-MEL-28, 48 h
REPORTED ENDPOINT: GI50

- COMPOUND: "COc1ccc(/C=N/c2nc3[nH]nc(C)n3c(=O)c2S(=O)(=O)NN2C(=O)C(CN3CCN(C)CC3)SC2c2ccc(OC)cc2)cc1 (centres undefined)"
  MEAS VALUE: "30.3 µM"
- COMPOUND: "COc1ccc(/C=N/c2nc3[nH]nc(C)n3c(=O)c2S(=O)(=O)NN2C(=O)C(CN3CCOCC3)SC2c2ccc(OC)cc2)cc1 (centres undefined)"
  MEAS VALUE: "> 100 µM"
- COMPOUND: "COc1ccc(/C=N/c2nc3[nH]nc(C)n3c(=O)c2S(=O)(=O)NN2C(=O)C(CN3CCN(C)CC3)SC2c2cccs2)cc1 (centres undefined)"
  MEAS VALUE: "16.4 µM"
- COMPOUND: "COc1ccc(/C=N/c2nc3[nH]nc(C)n3c(=O)c2S(=O)(=O)NN2C(=O)C(CN3CCOCC3)SC2c2cccs2)cc1 (centres undefined)"
  MEAS VALUE: "82.1 µM"

---

system: LOX IMVI; assay: Growth inhibition of human LOXIMVI cells after 48 hrs by sulforhodamine B assay; type: functional
REPORTED ENDPOINT: TGI

- COMPOUND: "COc1ccc(/C=N/c2nc3[nH]nc(C)n3c(=O)c2S(=O)(=O)NN2C(=O)C(CN3CCOCC3)SC2c2ccc(OC)cc2)cc1 (centres undefined)"
  REPORTED ENDPOINT: "TGI"
  MEAS VALUE: "62.4 µM"
- COMPOUND: "COc1ccc(/C=N/c2nc3[nH]nc(C)n3c(=O)c2S(=O)(=O)NN2C(=O)C(CN3CCN(C)CC3)SC2c2ccc(OC)cc2)cc1 (centres undefined)"
  REPORTED ENDPOINT: "TGI"
  MEAS VALUE: "> 100 µM"
- COMPOUND: "COc1ccc(/C=N/c2nc3[nH]nc(C)n3c(=O)c2S(=O)(=O)NN2C(=O)C(CN3CCN(C)CC3)SC2c2cccs2)cc1 (centres undefined)"
  REPORTED ENDPOINT: "TGI"
  MEAS VALUE: "> 100 µM"
- COMPOUND: "COc1ccc(/C=N/c2nc3[nH]nc(C)n3c(=O)c2S(=O)(=O)NN2C(=O)C(CN3CCOCC3)SC2c2cccs2)cc1 (centres undefined)"
  REPORTED ENDPOINT: "TGI"
  MEAS VALUE: "> 100 µM"

---

test system: HCT-116; test: Growth inhibition of human HCT116 cells after 48 hrs by sulforhodamine B assay; assay type: functional; conditions: HCT-116, 48 h
GI50 overview
REPORTED ENDPOINT: GI50 (µM)

- COMPOUND: "COc1ccc(/C=N/c2nc3[nH]nc(C)n3c(=O)c2S(=O)(=O)NN2C(=O)C(CN3CCOCC3)SC2c2cccs2)cc1 (centres undefined)"
  MEAS VALUE: 4.72
- COMPOUND: "COc1ccc(/C=N/c2nc3[nH]nc(C)n3c(=O)c2S(=O)(=O)NN2C(=O)C(CN3CCN(C)CC3)SC2c2ccc(OC)cc2)cc1 (centres undefined)"
  MEAS VALUE: 5.89
- COMPOUND: "COc1ccc(/C=N/c2nc3[nH]nc(C)n3c(=O)c2S(=O)(=O)NN2C(=O)C(CN3CCOCC3)SC2c2ccc(OC)cc2)cc1 (centres undefined)"
  MEAS VALUE: 29.7
- COMPOUND: "COc1ccc(/C=N/c2nc3[nH]nc(C)n3c(=O)c2S(=O)(=O)NN2C(=O)C(CN3CCN(C)CC3)SC2c2cccs2)cc1 (centres undefined)"
  MEAS VALUE: 1.01

---

test system: A549; test: Growth inhibition of human A549 cells after 48 hrs by sulforhodamine B assay; assay type: functional; conditions: A549, 48 h
GI50 overview

- COMPOUND: "COc1ccc(/C=N/c2nc3[nH]nc(C)n3c(=O)c2S(=O)(=O)NN2C(=O)C(CN3CCOCC3)SC2c2cccs2)cc1 (centres undefined)"
  GI50 / µM: 19.1
- COMPOUND: "COc1ccc(/C=N/c2nc3[nH]nc(C)n3c(=O)c2S(=O)(=O)NN2C(=O)C(CN3CCN(C)CC3)SC2c2cccs2)cc1 (centres undefined)"
  GI50 / µM: 3.65
- COMPOUND: "COc1ccc(/C=N/c2nc3[nH]nc(C)n3c(=O)c2S(=O)(=O)NN2C(=O)C(CN3CCN(C)CC3)SC2c2ccc(OC)cc2)cc1 (centres undefined)"
  GI50 / µM: 13.4
- COMPOUND: "COc1ccc(/C=N/c2nc3[nH]nc(C)n3c(=O)c2S(=O)(=O)NN2C(=O)C(CN3CCOCC3)SC2c2ccc(OC)cc2)cc1 (centres undefined)"
  GI50 / µM: 29.6

---

test system: SK-MEL-2; assay: Growth inhibition of human SK-MEL-2 cells after 48 hrs by sulforhodamine B assay; type: functional; conditions: SK-MEL-2, 48 h
REPORTED ENDPOINT: LC50 (concentration killing 50% of cells)

- MOLECULE: "COc1ccc(/C=N/c2nc3[nH]nc(C)n3c(=O)c2S(=O)(=O)NN2C(=O)C(CN3CCN(C)CC3)SC2c2ccc(OC)cc2)cc1 (centres undefined)"
  SYSTEM: "SK-MEL-2"
  MEAS VALUE: "99.4 µM"
- MOLECULE: "COc1ccc(/C=N/c2nc3[nH]nc(C)n3c(=O)c2S(=O)(=O)NN2C(=O)C(CN3CCOCC3)SC2c2cccs2)cc1 (centres undefined)"
  SYSTEM: "SK-MEL-2"
  MEAS VALUE: "> 100 µM"
- MOLECULE: "COc1ccc(/C=N/c2nc3[nH]nc(C)n3c(=O)c2S(=O)(=O)NN2C(=O)C(CN3CCOCC3)SC2c2ccc(OC)cc2)cc1 (centres undefined)"
  SYSTEM: "SK-MEL-2"
  MEAS VALUE: "> 100 µM"
- MOLECULE: "COc1ccc(/C=N/c2nc3[nH]nc(C)n3c(=O)c2S(=O)(=O)NN2C(=O)C(CN3CCN(C)CC3)SC2c2cccs2)cc1 (centres undefined)"
  SYSTEM: "SK-MEL-2"
  MEAS VALUE: "> 100 µM"

---

tested on: OVCAR-8; assay: Growth inhibition of human OVCAR8 cells after 48 hrs by sulforhodamine B assay; assay type: functional; conditions: OVCAR-8, 48 h
GI50 overview
REPORTED ENDPOINT: GI50 (µM)

- COMPOUND: "COc1ccc(/C=N/c2nc3[nH]nc(C)n3c(=O)c2S(=O)(=O)NN2C(=O)C(CN3CCN(C)CC3)SC2c2cccs2)cc1 (centres undefined)"
  MEAS VALUE: 3.53
- COMPOUND: "COc1ccc(/C=N/c2nc3[nH]nc(C)n3c(=O)c2S(=O)(=O)NN2C(=O)C(CN3CCOCC3)SC2c2ccc(OC)cc2)cc1 (centres undefined)"
  MEAS VALUE: 31.4
- COMPOUND: "COc1ccc(/C=N/c2nc3[nH]nc(C)n3c(=O)c2S(=O)(=O)NN2C(=O)C(CN3CCN(C)CC3)SC2c2ccc(OC)cc2)cc1 (centres undefined)"
  MEAS VALUE: 7.82
- COMPOUND: "COc1ccc(/C=N/c2nc3[nH]nc(C)n3c(=O)c2S(=O)(=O)NN2C(=O)C(CN3CCOCC3)SC2c2cccs2)cc1 (centres undefined)"
  MEAS VALUE: 60.6

---

test system: PC-3; assay: Growth inhibition of human PC3 cells after 48 hrs by sulforhodamine B assay; assay type: functional; settings: PC-3, 48 h

- COMPOUND: "COc1ccc(/C=N/c2nc3[nH]nc(C)n3c(=O)c2S(=O)(=O)NN2C(=O)C(CN3CCN(C)CC3)SC2c2ccc(OC)cc2)cc1 (centres undefined)"
  SYSTEM: "PC-3"
  GI50 (µM): 14.7
- COMPOUND: "COc1ccc(/C=N/c2nc3[nH]nc(C)n3c(=O)c2S(=O)(=O)NN2C(=O)C(CN3CCOCC3)SC2c2cccs2)cc1 (centres undefined)"
  SYSTEM: "PC-3"
  GI50 (µM): 3.92
- COMPOUND: "COc1ccc(/C=N/c2nc3[nH]nc(C)n3c(=O)c2S(=O)(=O)NN2C(=O)C(CN3CCOCC3)SC2c2ccc(OC)cc2)cc1 (centres undefined)"
  SYSTEM: "PC-3"
  GI50 (µM): 24.6
- COMPOUND: "COc1ccc(/C=N/c2nc3[nH]nc(C)n3c(=O)c2S(=O)(=O)NN2C(=O)C(CN3CCN(C)CC3)SC2c2cccs2)cc1 (centres undefined)"
  SYSTEM: "PC-3"
  GI50 (µM): 2.89
